Target: MPS1 (Homo sapiens, UniProt P33981)
Sequence (P33981 whole entry): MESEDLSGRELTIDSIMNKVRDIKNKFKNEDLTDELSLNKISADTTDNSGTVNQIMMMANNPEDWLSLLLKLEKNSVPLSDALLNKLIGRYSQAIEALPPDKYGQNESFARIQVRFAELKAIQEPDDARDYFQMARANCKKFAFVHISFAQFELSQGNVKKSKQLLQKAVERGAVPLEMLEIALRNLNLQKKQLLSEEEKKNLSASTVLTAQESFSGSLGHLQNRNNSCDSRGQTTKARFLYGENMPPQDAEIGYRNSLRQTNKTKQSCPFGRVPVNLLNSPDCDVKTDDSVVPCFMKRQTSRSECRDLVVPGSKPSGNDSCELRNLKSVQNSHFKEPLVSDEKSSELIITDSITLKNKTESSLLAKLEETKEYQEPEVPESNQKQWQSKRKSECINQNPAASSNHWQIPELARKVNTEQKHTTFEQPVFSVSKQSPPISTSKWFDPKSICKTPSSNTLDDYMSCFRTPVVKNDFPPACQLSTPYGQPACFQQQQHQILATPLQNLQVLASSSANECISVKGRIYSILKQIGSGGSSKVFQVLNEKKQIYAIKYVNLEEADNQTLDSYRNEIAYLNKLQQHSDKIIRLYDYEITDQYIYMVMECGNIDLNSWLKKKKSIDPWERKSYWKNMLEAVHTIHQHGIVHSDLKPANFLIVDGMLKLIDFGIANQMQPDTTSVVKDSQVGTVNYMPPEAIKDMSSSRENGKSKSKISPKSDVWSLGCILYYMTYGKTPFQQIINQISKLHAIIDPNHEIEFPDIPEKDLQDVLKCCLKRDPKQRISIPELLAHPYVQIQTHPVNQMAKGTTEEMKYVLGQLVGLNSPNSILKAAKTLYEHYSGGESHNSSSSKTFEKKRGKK
Assay: biochemical
Conditions: compound at 100 µM; read-out: % Inhibition MPS1
test-readout: inhibition at 100 µM (%)

>>> experimental_value("Nc1cc(-c2ccnc3ccccc23)c[nH]c1=O")
69
>>> experimental_value("Nc1cc(-c2ccnc(NC3CC3)n2)c[nH]c1=O")
87
>>> experimental_value("Cc1nc(O)c(N)cc1-c1ccncc1")
20
>>> experimental_value("Cn1cc(-c2c[nH]c(=O)c(N)c2)cn1")
41
>>> experimental_value("COc1ncc(-c2ccncc2)cc1N")
41
>>> experimental_value("CNc1nccc(-c2c[nH]c(=O)c(N)c2)n1")
71
